B1: Twister Ribozyme (parent)
chain: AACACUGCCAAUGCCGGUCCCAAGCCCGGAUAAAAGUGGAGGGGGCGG

variants of: B1; assay: self-cleavage, relative activity (ratio to wild type); higher = more cleavage; co-transcriptional
MEASURED PARAMETER: self-cleavage

• C15U A33U = 1.01
• C25U G43C = 0.102
• C15G A32G = 0.0996
• C14G G47A = 0.0923
• U12A A22G = 0.396
• C8G C15A = 0.0877
• A40U G45A = 0.192
• A1U G24C = 0.0779
• C19U G28U = 0.822
• A32U U37A = 0.74
• C27G G44A = 0.0871
• C8A G36C = 0.145
• U6A G28C = 0.524
• G24C G48A = 0.0988
• A2C A34C = 0.108
• G13C G17U = 0.114
• U37G G44C = 0.669
• G24C G48U = 0.0846
• U12G A30U = 0.812
• A11C G39C = 0.208
• C19G G29A = 0.258
• C3A A10U = 0.0843
• C9A A35C = 0.66
• U37A G39C = 0.121
